Would you mind telling me the reported TGI of each entry?
- System: 786-0 renal
- ASSAY COMMENT: NCI tumour cell line growth inhibition, 384-well format
Numbered stars: 1 amine (or outer) side, 2 acyl side, 3 side chain; on linkers, the order of the positions; unused ones are H or OH. Bridge positions count the residues as written; N and C are the ends. Square brackets hold non-standard residues; d marks the D form. Peptide text beside a SMILES is read from it. I, II: the chains in the order shown. Actinocin(9to1) = Cc1c2oc3c(C)ccc(C(=O)[*:1])c3nc-2c(C(=O)[*:2])c(N)c1=O; aThr = C[C@H](O)[C@H](N)C(=O)O; NMeV = CN[C@H](C(=O)O)C(C)C; Sar = CNCC(=O)O
Numbers only; they are read as µM.

Prompt line: Using the record for CC[C@@]1(O)C(=O)OCc2c1cc1n(c2=O)Cc2c-1nc1cc(F)c(C)c3c1c2[C@@H](NC(=O)CO)CC3 , report its TGI.
Response line: 0.0101

Prompt line: Using the record for Cc1c2oc3c(C)ccc(C(=O)N[C@@H]4C(=O)N[C@H](C(C)C)C(=O)N5CCC[C@H]5C(=O)N(C)CC(=O)N(C)[C@@H](C(C)C)C(=O)O[C@H]4C)c3nc-2c(C(=O)N[C@@H]2C(=O)N[C@H](C(C)C)C(=O)N3CCC[C@H]3C(=O)N(C)CC(=O)N(C)[C@@H](C(C)C)C(=O)O[C@H]2C)c(N)c1=O (I: [aThr][dV]P[Sar][NMeV] / II: [aThr][dV]P[Sar][NMeV]; ester I:1-I:C, II:1-II:C; linker I:N-II:N via Actinocin(9to1)) , report its TGI.
Response line: 0.0188

Prompt line: Using the record for Cc1cnc(-c2ccc(-c3ccc(NC(=O)Nc4c(F)cc(F)cc4F)cc3F)c3c2C(=O)NC3)[nH]1 , report its TGI.
Response line: 1.89

Prompt line: Using the record for COCCn1c2c([n+](Cc3cnccn3)c1C)C(=O)c1ccccc1C2=O , report its TGI.
Response line: 0.013

* * *

- Test system: HCT-116 colon
- ASSAY COMMENT: NCI tumour cell line growth inhibition, 384-well format
Would you mind telling me the reported GI50 of each entry?

Prompt line: Using the record for COc1cc(N2CCC(N)CC2)ccc1Nc1ncc(Cl)c(-c2c[nH]c3ccccc23)n1 , report its GI50.
Response line: 361 nM

Prompt line: Using the record for COc1cc(C)[nH]c(=O)c1CNC(=O)c1c(C)n([C@H](C)C2CCN(CC(F)(F)F)CC2)c2ccccc12 , report its GI50.
Response line: 66800 nM

Prompt line: Using the record for CC[C@@]1(O)C(=O)OCc2c1cc1n(c2=O)Cc2c-1nc1cc(F)c(C)c3c1c2[C@@H](NC(=O)CO)CC3 , report its GI50.
Response line: < 10 nM

Prompt line: Using the record for Cc1cnc(-c2ccc(-c3ccc(NC(=O)Nc4c(F)cc(F)cc4F)cc3F)c3c2C(=O)NC3)[nH]1 , report its GI50.
Response line: 153 nM

* * *

- Tested on: DU-145 prostate
- ASSAY COMMENT: NCI tumour cell line growth inhibition, 384-well format; in the data active = GI50 below about 0.43 µM; inactive = the rest
Returns: one label drawn from active, inactive

Prompt line: I'd appreciate the recorded outcome for Cc1cnc(-c2ccc(-c3ccc(NC(=O)Nc4c(F)cc(F)cc4F)cc3F)c3c2C(=O)NC3)[nH]1 from this test.
Response line: inactive

Prompt line: I'd appreciate the recorded outcome for COc1cc(N2CCC(N)CC2)ccc1Nc1ncc(Cl)c(-c2c[nH]c3ccccc23)n1 from this test.
Response line: active

Prompt line: I'd appreciate the recorded outcome for COc1cc(C)[nH]c(=O)c1CNC(=O)c1c(C)n([C@H](C)C2CCN(CC(F)(F)F)CC2)c2ccccc12 from this test.
Response line: inactive

Prompt line: I'd appreciate the recorded outcome for NC1(C(=O)N[C@@H](CCO)c2ccc(Cl)cc2)CCN(c2ncnc3[nH]ccc23)CC1 from this test.
Response line: inactive

Prompt line: I'd appreciate the recorded outcome for COCCn1c2c([n+](Cc3cnccn3)c1C)C(=O)c1ccccc1C2=O from this test.
Response line: active

Prompt line: I'd appreciate the recorded outcome for C[C@]12CC[C@@H]3c4ccc(OC(=O)N(CCCl)CCCl)cc4CC[C@H]3[C@@H]1CC[C@@H]2OP(=O)(O)O from this test.
Response line: inactive

Prompt line: I'd appreciate the recorded outcome for CC[C@@]1(O)C(=O)OCc2c1cc1n(c2=O)Cc2c-1nc1cc(F)c(C)c3c1c2[C@@H](NC(=O)CO)CC3 from this test.
Response line: active
